The following binders are shown together with reported pKd values.
- Tested Target: T1, human CD200R1 with dual His-tags (human, UniProt Q8TD46 25-265)
- T1 construct: Captured on the SPR chip by an anti-histidine antibody; also called hCD200R1-his; not shown: dual His-tags
- T1 sequence (looked up): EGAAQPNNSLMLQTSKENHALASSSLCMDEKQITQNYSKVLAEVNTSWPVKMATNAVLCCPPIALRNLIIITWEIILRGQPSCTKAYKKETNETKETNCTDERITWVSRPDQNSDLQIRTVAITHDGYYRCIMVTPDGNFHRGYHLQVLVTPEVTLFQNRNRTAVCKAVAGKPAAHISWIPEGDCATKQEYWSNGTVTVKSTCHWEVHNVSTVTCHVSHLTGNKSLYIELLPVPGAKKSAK
- Protocol Description: SPR (Biacore CM5), His-tagged antigen captured by anti-histidine antibody, antibody as analyte, 1:1 Langmuir fit
pKd: −log10 of the molar value.
Measure Name: pKd

>  <Binder>
P001009v4 (antibody, V domains shown, P001009 with LC N31K (Kabat); also called P019001v4) VH: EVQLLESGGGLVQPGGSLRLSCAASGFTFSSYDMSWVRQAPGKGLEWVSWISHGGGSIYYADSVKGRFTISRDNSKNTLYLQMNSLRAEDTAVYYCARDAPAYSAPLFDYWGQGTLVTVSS VL: QSVLTQPPSASGTPGQRVTISCSGSSSNIGNKAVNWYQQLPGTAPKLLIYYDSNRPSGVPDRFSGSKSGTSASLAISGLRSEDEADYYCAAWDDSLSGYVFGGGTKLTVL

>  <Measure Name>
pKd

>  <Result>
8.98

$$$$
>  <Binder>
P001009v1 (antibody, V domains shown, P001009 with LC S52K and S94R (Kabat); also called P019001v1; P0001009v1) VH: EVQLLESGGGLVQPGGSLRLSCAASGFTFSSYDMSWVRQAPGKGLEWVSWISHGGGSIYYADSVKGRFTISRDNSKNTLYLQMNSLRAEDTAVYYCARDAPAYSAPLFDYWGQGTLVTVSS VL: QSVLTQPPSASGTPGQRVTISCSGSSSNIGNNAVNWYQQLPGTAPKLLIYYDKNRPSGVPDRFSGSKSGTSASLAISGLRSEDEADYYCAAWDDRLSGYVFGGGTKLTVL

>  <Measure Name>
pKd

>  <Result>
10.68

$$$$
>  <Binder>
P001009 (IgG) (antibody, V domains shown, also called P001009 WT; P001009 wt) VH: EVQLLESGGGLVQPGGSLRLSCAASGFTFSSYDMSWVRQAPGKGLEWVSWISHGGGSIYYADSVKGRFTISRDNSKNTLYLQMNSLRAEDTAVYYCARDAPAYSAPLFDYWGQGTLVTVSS VL: QSVLTQPPSASGTPGQRVTISCSGSSSNIGNNAVNWYQQLPGTAPKLLIYYDSNRPSGVPDRFSGSKSGTSASLAISGLRSEDEADYYCAAWDDSLSGYVFGGGTKLTVL

>  <Measure Name>
pKd

>  <Result>
10.32

$$$$
